ASSAYED_TARGET: nanobit-large-bit-ERK2 and nanobit-small-bit-PEA15 in WM793 cells (Homo sapiens)
Construct: expressed in transfected cells
Sequence (P28482 whole entry): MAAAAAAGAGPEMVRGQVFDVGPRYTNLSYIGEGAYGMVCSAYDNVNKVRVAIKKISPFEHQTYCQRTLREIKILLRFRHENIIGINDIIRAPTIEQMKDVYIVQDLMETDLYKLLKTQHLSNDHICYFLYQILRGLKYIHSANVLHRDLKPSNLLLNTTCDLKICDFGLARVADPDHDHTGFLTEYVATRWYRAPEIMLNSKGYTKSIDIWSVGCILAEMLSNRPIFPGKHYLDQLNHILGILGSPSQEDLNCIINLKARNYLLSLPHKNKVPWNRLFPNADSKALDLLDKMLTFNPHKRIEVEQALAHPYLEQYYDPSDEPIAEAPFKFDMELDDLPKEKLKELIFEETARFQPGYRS
MEASUREMENT_NOTES: NanoBiT assay
Format: cell-based
CONDITION_PARAMETERS: WM793 nanobit stable cell line, overnight incubation; read-out: NanoBiT qualified absolute AC50
Protocol: Cancer cell media was prepared by adding 500 mL of RPMI (ThermoFisher cat ##22400-089) and 10% Fetal Bovine Serum (Gibco) for WM793 cells (ATCC Cat #CRL-2806, RRID: CVCL 8787) and F12K (Thermo Fisher cat #21127-022, 500 mL; or 21127-030, 10×500 mL)+10% FBS for PC3 (ATCC CRL-1435) cells. […] A nanobit stable cell line was generated using WM793 cells with nanobit-large-bit-ERK2 and nanobit-small-bit-PEA15. […] LUM plus, gain 3500, 0.1 s and focal height 12.5 [mm] on PheraStar reader. […]
1 if AC50 is below 70 nM. 0 if not; exact matches included in 0.

{"COMPOUND": "CCc1c(C[C@H]2CC[C@H](OC3CCOCC3)CC2)c2ccc(F)cc2n1C(=O)N1CCC(C(=O)N[C@H]2C[C@H](C(=O)O)C[C@@H]2C)(c2ccc(F)cc2)CC1", "ASSIGNED_LABEL": 0}
{"COMPOUND": "CC(C)O[C@H]1CC[C@H](C2CN(C(=O)N3CC[C@@](C(=O)N[C@H]4CC[C@H](C(=O)O)C[C@@H]4C)(c4ccc(F)cc4)C[C@@H]3C)c3cc(F)ccc32)CC1 (single isomer, unassigned)", "ASSIGNED_LABEL": 0}
{"COMPOUND": "CN1C[C@@H](F)[C@@H](NC(=O)C2(c3ccc(F)cc3)CCN(C(=O)c3c(C=O)n(CC4CCOCC4)c4ccc(Cl)cc34)CC2)C1", "ASSIGNED_LABEL": 1}
{"COMPOUND": "COCCc1c(C[C@H]2CC[C@H](OC(C)C)CC2)c2ccc(Cl)cc2n1C(=O)N1CCC(C(=O)N[C@H]2CC[C@H](C(=O)O)C[C@@H]2C)(c2ccc(F)cc2)CC1", "ASSIGNED_LABEL": 0}
{"COMPOUND": "CCc1c(C[C@H]2CC[C@H](OC3CCOCC3)CC2)c2ccc(F)cc2n1C(=O)N1CCC(C(=O)N[C@H]2CC[C@H](C(=O)O)C[C@@H]2C)(c2ccc(F)cc2)CC1", "ASSIGNED_LABEL": 1}
{"COMPOUND": "CCO[C@H]1CC[C@H](Cc2c(C)n(C(=O)N3CC[C@@](C(=O)N[C@H]4CC[C@H](C(=O)O)C[C@@H]4C)(c4ccc(F)cc4)C[C@@H]3C)c3cc(F)ccc23)OC1 (mixture of isomers)", "ASSIGNED_LABEL": 1}
{"COMPOUND": "Cc1c(C[C@H]2CC[C@H](OC(C)C)CC2)c2ccc(F)cc2n1C(=O)N1CCC(C(=O)N[C@H]2CC[C@H](C(=O)O)C[C@@H]2C)(c2ccc(F)cc2)CC1", "ASSIGNED_LABEL": 0}

###

Recorded measurements of AC50, one per entry
ASSAYED_TARGET: ERK2[2-360(p-T185/p-Y187)]-Avi (Homo sapiens, UniProt P28482)
Construct: 400 pM ERK2[2-360(p-T185/p-Y187)]-Avi was added to the plate
MEASUREMENT_NOTES: Biochemical assay (HTRF competition assay)
Type: binding
CONDITION_PARAMETERS: HTRF competition with Example 15 probe, overnight at RT; read-out: Biochemical qualified AC50
EXPERIMENTAL_READOUT: AC50

{"MOLECULE": "Cc1c(C[C@H]2CC[C@H](OC(C)C)CC2)c2ccc(F)cc2n1C(=O)N1CC[C@@](C(=O)N[C@H]2CC[C@H](C(=O)O)C[C@@H]2C)(c2ccc(F)cc2)C[C@@H]1C [Example 1l]", "EXPERIMENTAL_READOUT": "AC50", "MEASUREMENT": "< 280 pM"}
{"MOLECULE": "C[C@H]1C[C@@H](C(=O)O)CC[C@@H]1NC(=O)[C@@]1(c2ccc(F)cc2)CCN(C(=O)n2c3c(c4ccc(F)cc42)C(C2CCOCC2)OCC3)[C@@H](C)C1 (single isomer, unassigned) [Example 10]", "EXPERIMENTAL_READOUT": "AC50", "MEASUREMENT": "< 280 pM"}
{"MOLECULE": "COCCc1c(C[C@H]2CC[C@H](OC(C)C)CC2)c2cc(F)c(F)cc2n1C(=O)N1CCC(C(=O)N[C@H]2CC[C@H](C(=O)O)C[C@@H]2C)(c2ccc(F)cc2)CC1 [Example 1f]", "EXPERIMENTAL_READOUT": "AC50", "MEASUREMENT": "< 280 pM"}

###

Tested on: WM793 cells
MEASUREMENT_NOTES: Cell proliferation assay (CellTiter-Glo)
Assay type: cell-based
CONDITION_PARAMETERS: Homo sapiens, WM793, 72 h, 3 d, read-out: Cell proliferation qualified AC50

{"COMPOUND": "CCc1c(C[C@H]2CC[C@H](OC3CCOCC3)CC2)c2ccc(F)cc2n1C(=O)N1CCC(C(=O)N[C@H]2C[C@H](C(=O)O)C[C@@H]2C)(c2ccc(F)cc2)CC1", "AC50, µM": 0.11}
{"COMPOUND": "CCc1c(C[C@H]2CC[C@H](OC3CCOCC3)CC2)c2ccc(F)cc2n1C(=O)N1CC[C@@](C(=O)N[C@H]2CC[C@H](C(=O)O)C[C@@H]2C)(c2ccccc2)C[C@@H]1C", "AC50, µM": 0.029}
{"COMPOUND": "Cc1c(C[C@H]2CC[C@H](OC(C)C)CC2)c2ccc(F)cc2n1C(=O)N1CC[C@@](C(=O)N[C@H]2CC[C@H](C(=O)O)C[C@@H]2C)(c2ccc(F)cc2)C[C@@H]1C", "AC50, µM": 0.018}
{"COMPOUND": "C[C@H]1C[C@@H](C(=O)O)CC[C@@H]1NC(=O)[C@@]1(c2ccc(F)cc2)CCN(C(=O)n2c3c(c4ccc(F)cc42)C(C2CCOCC2)OCC3)[C@@H](C)C1 (single isomer, unassigned)", "AC50, µM": 0.04}
{"COMPOUND": "C[C@H]1C[C@@H](C(=O)O)CC[C@@H]1NC(=O)C1(c2ccc(F)cc2)CCN(C(=O)n2c3c(c4ccc(F)cc42)[C@@H](c2ccccc2)OCC3)CC1 (single isomer, unassigned) [Example 10b]", "AC50, µM": 10}
{"COMPOUND": "CCOC1CCC(Cc2c(C)n(C(=O)N3CC[C@@](C(=O)N[C@H]4CC[C@H](C(=O)O)C[C@@H]4C)(c4ccc(F)cc4)C[C@@H]3C)c3cc(F)ccc23)OC1 (single isomer, unassigned)", "AC50, µM": 0.013}
{"COMPOUND": "CN1CC[C@@H](NC(=O)C2(c3ccc(F)cc3)CCN(C(=O)c3cn(CC4CCOCC4)c4ccc(Br)cc34)CC2)C1", "AC50, µM": 2.7}
{"COMPOUND": "CN1CCC(NC(=O)C2(c3ccc(F)cc3)CCN(C(=O)c3c(C=O)n(CC4CCOCC4)c4ccc(Cl)cc34)CC2)CC1 [Example 11d]", "AC50, µM": 0.43}
{"COMPOUND": "Cc1c(CC2CCC(OC(C)C)CO2)c2ccc(F)cc2n1C(=O)N1CC[C@@](C(=O)N[C@H]2CC[C@H](C(=O)O)C[C@@H]2C)(c2ccc(F)cc2)C[C@@H]1C (some centres unmarked)", "AC50, µM": 0.015}
{"COMPOUND": "CCc1c(C[C@H]2CC[C@H](OC3CCOCC3)CC2)c2ccc(F)cc2n1C(=O)N1CCC(C(=O)N[C@H]2CC[C@H](C(=O)O)C[C@@H]2C)(c2ccc(F)cc2)CC1", "AC50, µM": 0.024}
{"COMPOUND": "CO[C@H]1CC[C@H](Cc2c(C)n(C(=O)N3CCC(C(=O)N[C@H]4CC[C@H](C(=O)O)CC4)(c4ccc(F)cc4)CC3)c3cc(F)ccc23)CC1", "AC50, µM": 0.94}
{"COMPOUND": "CN1CC[C@@H](NC(=O)C2(c3ccc(F)cc3)CCN(C(=O)c3c(C=O)n(CC4CCOCC4)c4ccc(Cl)cc34)CC2)C1 [Example 11f]", "AC50, µM": 0.14}
{"COMPOUND": "CCO[C@H]1CC[C@H](Cc2c(C)n(C(=O)N3CC[C@@](C(=O)N[C@H]4CC[C@H](C(=O)O)C[C@@H]4C)(c4ccc(F)cc4)C[C@@H]3C)c3cc(F)ccc23)OC1 (mixture of isomers)", "AC50, µM": 0.015}
{"COMPOUND": "CCc1c(C[C@H]2CC[C@H](OC3CCOCC3)CC2)c2ccc(F)cc2n1C(=O)N1CCC(C(=O)N[C@H]2CC[C@H](C(=O)O)CC2(C)C)(c2ccc(F)cc2)CC1", "AC50, µM": 0.07}
{"COMPOUND": "C[C@H]1[C@@H](NC(=O)C2(c3ccc(F)cc3)CCN(C(=O)c3c(C=O)n(CC4CCOCC4)c4ccc(Cl)cc34)CC2)CN1C [Example 11c]", "AC50, µM": 0.017}
{"COMPOUND": "Cc1c(C(=O)N2CCC(C(=O)N[C@H]3CN(C)C[C@H]3F)(c3ccc(F)cc3)CC2)c2cc(Cl)ccc2n1CC1CCOCC1", "AC50, µM": 0.27}
{"COMPOUND": "C[C@H]1C[C@@H](C(=O)O)CC[C@@H]1NC(=O)[C@@]1(c2ccc(F)cc2)CCN(C(=O)N2CCc3ccc(F)cc32)[C@@H](C)C1", "AC50, µM": 0.22}
{"COMPOUND": "CC(C)O[C@H]1CC[C@H](Cn2c(C=O)c(C(=O)N3CCC(C(=O)N[C@H]4CC[C@H](C(=O)O)C[C@@H]4C)(c4ccc(F)cc4)CC3)c3cc(Cl)ccc32)CC1 [Example 11h]", "AC50, µM": 0.12}
{"COMPOUND": "CCc1c(C[C@H]2CC[C@H](OC3CCOCC3)CC2)c2ccc(F)cc2n1C(=O)N1CC[C@@](C(=O)N[C@H]2CC[C@H](C(=O)O)C[C@@H]2C)(c2ccc(F)c(F)c2)C[C@@H]1C", "AC50, µM": 0.01}
{"COMPOUND": "COCCc1c(C[C@H]2CC[C@H](OC(C)C)CC2)c2cc(F)c(F)cc2n1C(=O)N1CCC(C(=O)N[C@H]2CC[C@H](C(=O)O)C[C@@H]2C)(c2ccc(F)cc2)CC1", "AC50, µM": 0.052}
